Origin of values: PubChem BioAssay (Tox21)

assay: A CellTox Green Cytotoxicity Assay to monitor cytotoxicity in HepG2 cells - 16 hour (AID 1224876); details: CellTox Green fluorescence; series mostly up to 76.8 µM; note: nearly all actives have a fitted effect of over 45% in size
Results filed as inconclusive are left out. Activity calls are given as the source filed them. Calls come from the whole dose curve; as a rule, active = well fitted activation curve with a large enough effect in the repeat runs; inconclusive = weak or mixed curves; inactive = flat fitted curve, though single readings scatter.
Select the matching outcome among active, inactive

What is the recorded call for this compound in the test? CC(C)Nc1cccnc1N1CCN(C(=O)c2cc3cc(NS(C)(=O)=O)ccc3[nH]2)CC1 inactive

What is the recorded call for this compound in the test? O=C(CCc1ccc(O)cc1)c1c(O)cc(O)cc1O inactive

What is the recorded call for this compound in the test? COc1ccccc1NC(=O)c1cc2ccccc2cc1O inactive

What is the recorded call for this compound in the test? O=C1c2ccccc2C(=O)N1CCc1noc(-c2ccc(CN3CCCCCC3)s2)n1 active
